# PROCEDURE SUMMARY: recombinant barcode read abundance after kanamycin selection (control-corrected) (log10(CPM+1)); higher = more efficient recombination; sequences stand for … in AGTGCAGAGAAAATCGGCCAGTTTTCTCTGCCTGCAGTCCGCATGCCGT…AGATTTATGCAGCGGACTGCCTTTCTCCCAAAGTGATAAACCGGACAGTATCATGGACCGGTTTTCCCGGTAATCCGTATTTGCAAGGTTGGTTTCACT; site = the 11-nt target;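 also: IS621 recombinase and bridge RNA in Escherichia coli cells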
# recombinant barcode read abundance (log10) listing for each entry below
Quick one: just the number, no unit, thanks!

# count of solved cases: 10
POLYMER SEQUENCE | NUMERIC RESULT
TATCGCACTTGGGTTCTAACCTGTTGCCT (site TATCGCACTAG) | 0.0277
GCCAGGGCTTGGGTTCTAACCTGTTGCCG (site GCCGGGGCTCG) | 0.111
AGAGCGACTTGGGTTCTAACCTGTTGCCT (site AGAGTGACTAG) | 0.0332
CGCAGCTCTTGGGTTCTAACCTGTTGCCT (site CGGAGCTCTAG) | 0.0445
TTGTATACTTGGGTTCTAACCTGTTGCCT (site TTGTATACTAG) | 0.612
GGCAAGACTTGGGTTCTAACCTGTTGCCT (site GGTAAGACTAG) | 0.0715
GAGGTAACTTGGGTTCTAACCTGTTGCAC (site GAGGTAACTGT) | 1.66
TCTAAGCCTTGGGTTCTAACCTGTTGCAT (site TCTAATCCTAT) | 0.0292
TGGGCGGCTTGGGTTCTAACCTGTTGCCT (site TAGGTGGCTAG) | 0.133
ACGAACGCTTGGGTTCTAACCTGTTGCCT (site ACGAACGCTAG) | 1.64

-- ask I am curious: what recombinant barcode read abundance (log10) value has been reported for CTATTGACTTGGGTTCTAACCTGTTGCCT (site CTATTGACTAG) ?
-- reply 1.42

-- ask Next record, please: TCCCAGTCTTGGGTTCTAACCTGTTGCGT (site TCCCAGTCTAT)
-- reply 1.6

-- ask What would you report for CCGTCGACTTGGGTTCTAACCTGTTGCCT (site CCGTCGACTAG) ?
-- reply 0.197

-- ask What about GTTGGGGCTTGGGTTCTAACCTGTTGCGG (site GTTGGGGCTCC) ?
-- reply 2

-- ask Now the same for TTGCGAACTTGGGTTCTAACCTGTTGCCT (site TTGCGAACTAG)
-- reply 0.868

-- ask Also AATAGTGCTTGGGTTCTAACCTGTTGCCT (site ATTAGTGCTAG) ?
-- reply 0.045
